# TGT: HDAC1 (Homo sapiens (Human), UniProt Q13547)
# Sequence (Q13547 whole entry): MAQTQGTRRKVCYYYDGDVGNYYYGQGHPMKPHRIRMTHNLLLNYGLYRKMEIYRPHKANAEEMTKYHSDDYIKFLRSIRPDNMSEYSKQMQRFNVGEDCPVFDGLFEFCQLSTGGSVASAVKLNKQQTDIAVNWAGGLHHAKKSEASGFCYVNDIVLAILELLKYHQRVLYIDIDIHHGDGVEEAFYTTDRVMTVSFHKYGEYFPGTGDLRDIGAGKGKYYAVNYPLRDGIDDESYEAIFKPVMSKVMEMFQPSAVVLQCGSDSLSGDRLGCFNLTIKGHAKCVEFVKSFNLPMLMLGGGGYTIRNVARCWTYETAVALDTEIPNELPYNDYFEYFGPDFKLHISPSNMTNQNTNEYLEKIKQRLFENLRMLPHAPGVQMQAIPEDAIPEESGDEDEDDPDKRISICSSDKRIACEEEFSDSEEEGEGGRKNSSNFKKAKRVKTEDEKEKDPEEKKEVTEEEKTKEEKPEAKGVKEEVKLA
pIC50: −log10 of the molar value.

{"COMPOUND": "Nc1ccc(-c2ccccc2)cc1NC(=O)c1ncc(N2CCNCC2)s1 [Compound 049]", "TGT": "HDAC1 (Homo sapiens (Human), UniProt Q13547)", "pIC50": "> 8.00"}

====

# Tested on: CYP1A2, CYP2C9, CYP2C19, CYP3A4, CYP2D6
# EXPERIMENT_SUMMARY: Cyp inhibition in human liver microsomes (all isozymes)
# Type: in vitro ADME
pIC50: −log10 of the molar value.
ENDPOINT_LABEL: pIC50

{"MOLECULE_SMILES": "CN1CCN(c2ncc(C(=O)Nc3cc(-c4cccs4)ccc3N)s2)CC1", "ENDPOINT_LABEL": "pIC50", "MEAS_VALUE": "< 5.00"}

====

# EXPERIMENT_SUMMARY: Rat cassette dosing pharmacokinetics (IV and PO)
# Type: in vivo
# CONDITION_SET: plasma, 5 mg/kg, male SD rats, oral AUC to IV AUC, dose adjusted
ENDPOINT_LABEL: bioavailability (%)

{"MOLECULE_SMILES": "CN1CCN(c2ncc(C(=O)Nc3cc(-c4cccs4)ccc3N)s2)CC1", "MEAS_VALUE": 170}

====

# EXPERIMENT_SUMMARY: Rat cassette dosing pharmacokinetics (IV and PO)
# Assay type: in vivo
# CONDITION_SET: male SD rats, PO 5 mg/kg, plasma, read-out: PO T1/2 (converted)

{"MOLECULE": "CN1CCN(c2ncc(C(=O)Nc3cc(-c4cccs4)ccc3N)s2)CC1 [Compound 030]", "UNIT_STRING": "h", "half-life": 12.8}

====

# EXPERIMENT_SUMMARY: Rat cassette dosing pharmacokinetics (IV and PO)
# Format: in vivo
# CONDITION_SET: male SD rats, PO 5 mg/kg, plasma
ENDPOINT_LABEL: AUC (ng·h/mL)

{"MOLECULE_SMILES": "CN1CCN(c2ncc(C(=O)Nc3cc(-c4cccs4)ccc3N)s2)CC1", "MEAS_VALUE": 15300}
